Numbers sourced from PubChem BioAssay AID624442.

# assay text: cellular ROS inducers, fluorescent dye readout – U2OS cells, fluorescence, dry powder, set 2, dose response (AID 624442)
# stated conditions: U2OS ROS induction, H2DCF-DA fluorescence, hits give high values; at 38 µM unless noted
Active and inactive are the calls of the source.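 How the source made its calls: active means activation curve reaches 40% at a concentration no higher than the top valid dose tested; inactive means signal falling instead of rising, plus the rest.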
Listed here: items and their measured max activation.

molecule	readout	assay result
O=C(Nc1nc(SCc2ccccc2)ns1)C1CCC1	max activation	30.8% (inactive)
O=C(Nc1nc(SCc2ccccc2)ns1)C1CC=CCC1 (stereo not given)	max activation	65.2% (inactive)
Cc1cccc(CSc2nsc(N)n2)c1	max activation	24.3% [at 19.5 µM] (inactive)
Nc1nc(SCc2ccccc2)ns1	max activation	14.6% [at 5 µM] (inactive)

Please turn your attention to the following entry.
Request: Query: max activation; subject: `Cc1ccccc1CSc1nsc(N)n1`
Result: 27.9% [at 19.5 µM] (inactive)
